- METHOD NOTES: Plasma pharmacokinetics and brain distribution after single IV, IP and oral administration
- Type: in vivo
- MEASUREMENT PARAMETERS: male, C57BL/6, mouse, in vivo; plasma, IP 10 mg/kg
Where a name gives a salt, the structure may show the parent alone.
EXPERIMENTAL READOUT: Cmax (ng/mL)
Answers are plain numbers, in ng/mL.

Please report the recorded Cmax for [2H]C1([2H])Oc2ccc(Nc3nc(-c4c(C)nc5ccccn45)cs3)cc2O1 [Compound 17, hydrochloride] . 469

----------
- METHOD NOTES: in vitro
- MEASUREMENT PARAMETERS: mouse, microsomes, 0.5 h, 1 μM, pH 7.4
Where a name gives a salt, the structure may show the parent alone.
Would you mind telling me the reported Percentage turnover in MLM (percent remaining), 30 min of each entry?
One number for each entry, in %.

Please look at the items below and tell me Percentage turnover in MLM (percent remaining), 30 min for each one, in order.
1. COc1c(F)cc(Nc2nc(-c3c(C)nc4ccccn34)cs2)cc1F [Compound 14, hydrochloride]
2. Cc1nc2ccccn2c1-c1csc(Nc2ccc3c(c2)OC(F)(F)O3)n1 [Compound 16, hydrochloride]
3. [2H]C1([2H])Oc2ccc(Nc3nc(-c4c(C)nc5ccccn45)cs3)cc2O1 [Compound 17, hydrochloride]
4. [2H]C([2H])([2H])Oc1ccc(Nc2nc(-c3c(C)nc4ccccn34)cs2)cc1 [Compound 15, hydrochloride]

[36, 35, 20, 67]

----------
- METHOD NOTES: Plasma pharmacokinetics and brain distribution after single IV, IP and oral administration
- Format: in vivo
- MEASUREMENT PARAMETERS: male, C57BL/6, mouse, in vivo, iv, 10 mg/kg, Plasma concentration, individual animal
Structures can show the parent of a compound that is named as a salt.
EXPERIMENTAL READOUT: concentration at 24 hr (ng/mL)
Answers are plain numbers, in ng/mL.

Please report the recorded concentration at 24 hr for Cc1nc2ccccn2c1-c1csc(Nc2ccc3c(c2)OC(F)(F)O3)n1 [Compound 16, hydrochloride] . 0

----------
- METHOD NOTES: Plasma pharmacokinetics and brain distribution after single IV, IP and oral administration
- Type: in vivo
- MEASUREMENT PARAMETERS: male, C57BL/6, mouse, in vivo, iv, 10 mg/kg, Plasma concentration, individual animal
Counter-ions that a name gives are not always drawn.
EXPERIMENTAL READOUT: concentration at 6 hr (ng/mL)
Answers are plain numbers, in ng/mL.

Please report the recorded concentration at 6 hr for Cc1nc2ccccn2c1-c1csc(Nc2ccc3c(c2)OC(F)(F)O3)n1 [Compound 16, hydrochloride] . 0

----------
- METHOD NOTES: Plasma pharmacokinetics and brain distribution after single IV, IP and oral administration
- Assay type: in vivo
- MEASUREMENT PARAMETERS: male, C57BL/6, mouse, in vivo, iv, 10 mg/kg, Mean plasma conc.
Structures can show the parent of a compound that is named as a salt.
EXPERIMENTAL READOUT: concentration at 3 h (ng/mL)
Numbers only, in ng/mL.

Please report the recorded concentration at 3 h for Cc1nc2ccccn2c1-c1csc(Nc2ccc3c(c2)OC(F)(F)O3)n1 [Compound 16, hydrochloride] . 5.64

----------
Would you mind telling me the reported fraction unbound at 4 h, 5 μM of each entry?
- METHOD NOTES: in vitro
- Assay type: in vitro ADME, mice
- MEASUREMENT PARAMETERS: mouse, plasma, pH 7.4, % Bound R1
Counter-ions that a name gives are not always drawn.
Numbers only.

Example entries and their recorded answers appear below.
[2H]C1([2H])Oc2ccc(Nc3nc(-c4c(C)nc5ccccn45)cs3)cc2O1 [Compound 17, hydrochloride] : 0.008
Cc1nc2ccccn2c1-c1csc(Nc2ccc3c(c2)OC(F)(F)O3)n1 [Compound 16, hydrochloride] : 0.01
COc1c(F)cc(Nc2nc(-c3c(C)nc4ccccn34)cs2)cc1F [Compound 14, hydrochloride] : 0.002
[2H]C([2H])([2H])Oc1ccc(Nc2nc(-c3c(C)nc4ccccn34)cs2)cc1 [Compound 15, hydrochloride] : 0.001

# next compound below
Please report the recorded fraction unbound at 4 h, 5 μM for CC(=O)CC(c1ccccc1)c1c(O)c2ccccc2oc1=O (centres unmarked) [Warfarin, reference compound] . 0.071
